Recorded t1/2 for the following binders
# assayed-system: T1, human IL-33 (R&D Systems, #3625-IL-010/CF) (human) (UniProt O95760)
# T1 sequence (looked up): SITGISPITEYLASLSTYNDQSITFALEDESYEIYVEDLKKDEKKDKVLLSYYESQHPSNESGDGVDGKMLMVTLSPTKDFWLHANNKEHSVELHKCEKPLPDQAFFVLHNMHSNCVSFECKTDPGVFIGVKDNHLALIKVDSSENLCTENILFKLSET
# protocol-notes: SPR Biacore T200, 25 C
readout-name: t1/2 (min)

{"binder": "H4H9667P (antibody, from another filing, IgG4, V domains shown) VH: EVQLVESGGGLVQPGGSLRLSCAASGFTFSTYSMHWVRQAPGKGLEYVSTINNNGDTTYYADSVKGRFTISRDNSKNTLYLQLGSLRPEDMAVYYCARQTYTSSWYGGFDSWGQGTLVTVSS VL: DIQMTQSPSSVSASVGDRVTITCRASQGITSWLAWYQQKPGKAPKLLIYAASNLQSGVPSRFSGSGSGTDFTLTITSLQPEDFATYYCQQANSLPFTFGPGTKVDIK", "recorded-result": 35}
{"binder": "H4H9672P (antibody, from another filing, IgG4, V domains shown) VH: EVQLVESGGGLVQPGGSLRLSCAASGFTLRSYVMYWVRQGPGKGLEGVSGISGSSGGTYYTDSVKGRFTISRDNSKNTLFLQMNSLRAEDTAVYFCARSVYSTTWYGGFQHWGQGTLVTVSS VL: DIQMTQSPSSVSVSVGDRVTITCRASQVISSWLAWYQLKPGKAPKLLIYAASSLQSGVPSRFSGSGSGTDFTLTISGLQPEDFAVYYCQQTNSFPLTFGGGTKVEIK", "recorded-result": 14}
{"binder": "H4H9675P (antibody, from another filing, IgG4, V domains shown) VH: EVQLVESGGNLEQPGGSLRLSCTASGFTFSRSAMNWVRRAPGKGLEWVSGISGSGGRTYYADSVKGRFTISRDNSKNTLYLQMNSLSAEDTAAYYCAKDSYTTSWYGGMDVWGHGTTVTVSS VL: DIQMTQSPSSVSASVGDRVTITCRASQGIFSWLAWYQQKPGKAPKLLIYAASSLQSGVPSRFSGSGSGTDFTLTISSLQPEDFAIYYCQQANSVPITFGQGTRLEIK", "recorded-result": 18}
{"binder": "H4H9662P (antibody, from another filing, IgG4, V domains shown) VH: EVQLVESGGGLVQPGGSLRLSCAASGFTFSSYALTWVRQAPGKGLEWVSFISGSGGRPFYADSVKGRFTISRDNSKNMLYLQMNSLRAEDTAIYYCAKSLYTTSWYGGFDSWGQGTLVTVSS VL: DIQMTQSPSSVSASVGDRVTITCRASQGVVSWLAWYQQKPGKAPKLLIYAASSLQSGVPSRFSGSGSGTDFTLTISSLQPEDFATYYCQQSNSFPFTLGPGTKVDIK", "recorded-result": 25}
